Measured values drawn from ChEMBL document CHEMBL1138907 for this set.

assay: Ratio for partition coefficient, log K in IPM to buffer at pH 4; type: physicochemical; details: IPM/pH 4.0 buffer
Binary call on log K: y from -0.5 upward, n beneath that.

{"Compound": "COC(=O)N(C)Cn1cnc2c1c(=O)n(C)c(=O)n2C", "Assigned Label": "y"}
{"Compound": "CC(=O)Nc1ccc(O)cc1", "Assigned Label": "n"}
{"Compound": "Sc1ncnc2nc[nH]c12 [MERCAPTOPURINE ANHYDROUS]", "Assigned Label": "n"}
{"Compound": "COC(=O)N(C)CSc1[nH]cnc2ncnc1-2", "Assigned Label": "y"}
{"Compound": "COC(=O)N(C)COc1ccc(NC(C)=O)cc1", "Assigned Label": "y"}

* * *

assay: Aqueous solubility of the compound; assay type: physicochemical; settings: water
Catalogue of solubility values
Recorded Metric: solubility (mM)

{"Compound": "Sc1ncnc2nc[nH]c12 [MERCAPTOPURINE ANHYDROUS]", "Value Observed": 1.12}
{"Compound": "COC(=O)N(C)Cn1cnc2c1c(=O)n(C)c(=O)n2C", "Value Observed": 9.33}
{"Compound": "COC(=O)N(C)CSc1[nH]cnc2ncnc1-2", "Value Observed": 1.45}
{"Compound": "COC(=O)N(C)COc1ccc(NC(C)=O)cc1", "Value Observed": 45.7}
{"Compound": "CC(=O)Nc1ccc(O)cc1", "Value Observed": 100}
{"Compound": "Cn1c(=O)c2[nH]cnc2n(C)c1=O.O", "Value Observed": 46}

* * *

# solubility annotations
test: Solubility in IPM; format: physicochemical; conditions: IPM; read-out: Solubility

{"Molecule": "Cn1c(=O)c2[nH]cnc2n(C)c1=O.O", "solubility [µM]": 340}
{"Molecule": "COC(=O)N(C)Cn1cnc2c1c(=O)n(C)c(=O)n2C", "solubility [µM]": 2690}
{"Molecule": "COC(=O)N(C)CSc1[nH]cnc2ncnc1-2", "solubility [µM]": 1350}
{"Molecule": "Sc1ncnc2nc[nH]c12 [MERCAPTOPURINE ANHYDROUS]", "solubility [µM]": 20}
{"Molecule": "COC(=O)N(C)COc1ccc(NC(C)=O)cc1", "solubility [µM]": 14100}

* * *

assay: Half life of the compound; assay type: ADME
Please use YES whenever half-life is not below 0.4 h, and NO whenever it is.

{"Chemical Structure": "COC(=O)N(C)COC(=O)c1ccc(N(C)C)cc1", "Assigned Label": "NO"}
{"Chemical Structure": "COC(=O)N(COc1ccc([N+](=O)[O-])cc1)c1ccccc1", "Assigned Label": "YES"}
{"Chemical Structure": "COC(=O)N(C)COc1ccc(C(C)=O)cc1", "Assigned Label": "YES"}
{"Chemical Structure": "COC(=O)N(C)COc1ccc(C#N)cc1", "Assigned Label": "YES"}
{"Chemical Structure": "COC(=O)N(C)COc1ccc([N+](=O)[O-])cc1", "Assigned Label": "NO"}
{"Chemical Structure": "COC(=O)N(C)CSc1[nH]cnc2ncnc1-2", "Assigned Label": "NO"}
{"Chemical Structure": "COC(=O)N(C)COc1ccccc1C=O", "Assigned Label": "NO"}
{"Chemical Structure": "CCOC(=O)c1ccc(N(COc2ccc([N+](=O)[O-])cc2)C(=O)OC)cc1", "Assigned Label": "YES"}
{"Chemical Structure": "COC(=O)N(C)COc1ccc(NC(C)=O)cc1", "Assigned Label": "YES"}
{"Chemical Structure": "COC(=O)N(COc1ccc([N+](=O)[O-])cc1)c1ccc(OC)cc1", "Assigned Label": "YES"}
{"Chemical Structure": "COC(=O)N(C)COc1ccc(C=O)cc1", "Assigned Label": "YES"}
{"Chemical Structure": "COC(=O)N(C)Cn1cnc2c1c(=O)n(C)c(=O)n2C", "Assigned Label": "YES"}
{"Chemical Structure": "COC(=O)c1ccc(OCN(C)C(=O)OC)cc1", "Assigned Label": "YES"}

* * *

assay: Dissociation constant, pKa of the compound; assay type: physicochemical
Below, each of the compounds is paired with its reported pKa value.
Recorded Metric: pKa

{"Chemical Structure": "COC(=O)N(C)COC(=O)c1ccc(N(C)C)cc1", "Value Observed": 5.03}
{"Chemical Structure": "COC(=O)c1ccc(OCN(C)C(=O)OC)cc1", "Value Observed": 8.47}
{"Chemical Structure": "COC(=O)N(C)COc1ccc(C#N)cc1", "Value Observed": 7.95}
{"Chemical Structure": "COC(=O)N(C)CSc1[nH]cnc2ncnc1-2", "Value Observed": 7.5}
{"Chemical Structure": "COC(=O)N(C)Cn1cnc2c1c(=O)n(C)c(=O)n2C", "Value Observed": 8.6}
{"Chemical Structure": "COC(=O)N(C)COc1ccc(C(C)=O)cc1", "Value Observed": 8.05}
{"Chemical Structure": "COC(=O)N(C)COc1ccc(C=O)cc1", "Value Observed": 7.66}
{"Chemical Structure": "COC(=O)N(C)COc1ccccc1C=O", "Value Observed": 6.79}
{"Chemical Structure": "COC(=O)N(C)COc1ccc(NC(C)=O)cc1", "Value Observed": 9.5}
{"Chemical Structure": "COC(=O)N(C)COc1ccc([N+](=O)[O-])cc1", "Value Observed": 7.14}
